From: the nanobody polyreactivity screen of Harvey et al. (2022)

Test: yeast display, Sf9 membrane polyspecificity reagent, FACS + sequencing; frameworks hold sequencing errors
ASSAY ENDPOINT: polyreactivity (PSR sort gate)

// query Kindly indicate its recorded polyreactivity (PSR sort gate). Item: "QVQLVESGGGLVQAGGSLRLSCAASGRIFQYYTMGWSRQAPGKERELVAAITRSGGSTYYADSVKGRFTISRDNAKNTVYLQMNSLKPEDTAVYYFNADTRVKLPWYYTFDYLGQGTQVTVSS"
// result low polyreactivity

// query Kindly indicate its recorded polyreactivity (PSR sort gate). Item: "QVQLVESGGGLVQAGGSLRLSCDASGNTYLNALGWYRQAPGKERELVAAISKGGADTYYADSVKGRFTISRDNAKNTVYLQMNSLKPEDTAVYYCAADGYADGWWVEYPWTYDYWGQGTQVTVSS"
// result low polyreactivity
